Molecular target: E. coli Lsp (Escherichia coli, UniProt P00804, D131G/R160K)
Sequence (P00804 other isoform, or with tags, fused parts or gaps D131G/R160K): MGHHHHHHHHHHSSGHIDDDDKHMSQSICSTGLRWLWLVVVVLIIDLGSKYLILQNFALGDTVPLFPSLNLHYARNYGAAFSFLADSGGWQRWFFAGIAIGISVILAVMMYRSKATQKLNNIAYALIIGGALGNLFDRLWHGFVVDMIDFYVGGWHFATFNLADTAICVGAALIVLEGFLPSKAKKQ
Experiment: biochemical
RECORDED_METRIC: pIC50
Answer as the number alone; pIC50 is minus log10 of concentration in mol/L.

Exercise: Bench note: what pIC50 did `CCN(CC)CCc1cn(CC(=O)NC[C@]2(C)CCC[C@]3(C)c4ccc(C(C)C)cc4CC[C@@H]23)nn1` show?
Key: 4.82

====

Biological target: E. coli Lsp (Escherichia coli, UniProt P00804, D131G/R160K)
Settings: resynthesized compound
RECORDED_METRIC: pEC50
Answer as the number alone; pEC50 is minus log10 of concentration in mol/L.

Exercise: Bench note: what pEC50 did CCC(CC)c1nnc(NC(=O)c2cc(OC)c(OC)cc2[N+](=O)[O-])s1 [SR-01000270728-1] show?
Key: 5.66
